Reference for the values: ChEMBL document CHEMBL5321210

- measured-on: UniProt P34972
- experiment-summary: Displacement of [3H]-CP55940 from human CB2 receptor expressed in HEK293 cell membrane at 1 uM incubated for 90 mins by radioligand competition binding assay relative to control
- Type: cell membranes
Label key: Condition met means Activity under 20%; Condition not met means Activity of 20% or more.

| smiles-input | assigned-label |
| --- | --- |
| CCCCCNc1ccc(-c2ccc(C(=O)OC)cc2)cc1C(=O)NC12CC3CC(CC(C3)C1)C2 | Condition met |
| CCCCCNc1ccc(-c2cccc(C)c2)cc1C(=O)NC12CC3CC(CC(C3)C1)C2 | Condition not met |
| CCCCCCNc1ccc(Br)cc1C(=O)NC12CC3CC(CC(C3)C1)C2 | Condition not met |
| CCCCCCCNc1ccc(-c2cccnc2)cc1C(=O)NC12CC3CC(CC(C3)C1)C2 | Condition not met |
| CCCCCCCNc1ccc(Br)cc1C(=O)NC12CC3CC(CC(C3)C1)C2 | Condition met |
| CCCCCNc1ccc(-c2cccc(C(N)=O)c2)cc1C(=O)NC12CC3CC(CC(C3)C1)C2 | Condition not met |
| CCCCCNc1ccc(-c2ccc(C(N)=O)cc2)cc1C(=O)NC12CC3CC(CC(C3)C1)C2 | Condition met |
| CCCCCNc1ccc(-c2ccccc2)cc1C(=O)NC1CCCCC1 | Condition not met |
| CCCCCNc1ccc(-c2cccc(OC)c2)cc1C(=O)NC12CC3CC(CC(C3)C1)C2 | Condition not met |

---

- measured-on: Cannabinoid receptor 2 (Homo sapiens)
- Sequence (P34972 whole entry): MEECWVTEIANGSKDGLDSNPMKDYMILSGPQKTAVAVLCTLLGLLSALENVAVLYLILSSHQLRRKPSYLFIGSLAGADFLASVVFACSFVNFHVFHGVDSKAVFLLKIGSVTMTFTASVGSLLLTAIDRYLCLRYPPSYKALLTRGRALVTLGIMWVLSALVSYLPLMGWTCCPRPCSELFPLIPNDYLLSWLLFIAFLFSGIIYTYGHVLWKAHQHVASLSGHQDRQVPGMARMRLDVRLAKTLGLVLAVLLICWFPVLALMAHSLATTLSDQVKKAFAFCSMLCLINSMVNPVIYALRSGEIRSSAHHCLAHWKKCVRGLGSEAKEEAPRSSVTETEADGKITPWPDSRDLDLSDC
- experiment-summary: Agonist activity at human CB2 receptor expressed in CHO-K1 cells assessed as inhibition of NKH-477 induced cAMP production incubated for 30 mins by luminescence based analysis
Label key: 1 means EC50 under 6 µM; 0 means EC50 of 6 µM or more.

| smiles-input | assigned-label |
| --- | --- |
| CCCCCNc1ccc(-c2cccnc2)cc1C(=O)NC12CC3CC(CC(C3)C1)C2 | 0 |
| CCCCCNc1ccccc1C(=O)NC12CC3CC(CC(C3)C1)C2 | 1 |
| CCCCCNc1ccc(-c2cccc(F)c2)cc1C(=O)NC12CC3CC(CC(C3)C1)C2 | 1 |
| CCCCCCCNc1ccc(-c2cccs2)cc1C(=O)NC12CC3CC(CC(C3)C1)C2 | 1 |
| CCCC(C)(C)c1ccc2c(c1)OC(C)(C)[C@@H]1CC=C(C)C[C@@H]21 | 0 |

---

- measured-on: Cannabinoid receptor 2 (Homo sapiens)
- experiment-summary: Agonist activity at human CB2 receptor expressed in CHO-K1 cells assessed as inhibition of NKH-477 induced cAMP production by measuring maximal efficacy incubated for 30 mins by luminescence based analysis relative to control
- Format: functional, cell-based
- study-conditions: filed as agonist
recorded-endpoint: Emax (%)

| smiles-input | recorded-endpoint | output-unit | reported |
| --- | --- | --- | --- |
| CCCCCNc1ccc(-c2cccnc2)cc1C(=O)NC12CC3CC(CC(C3)C1)C2 | Emax | % | 98.1 |
| CCCCCNc1ccc(-c2cccc(F)c2)cc1C(=O)NC12CC3CC(CC(C3)C1)C2 | Emax | % | 86.6 |
| CCCCCCCNc1ccc(-c2cccs2)cc1C(=O)NC12CC3CC(CC(C3)C1)C2 | Emax | % | 75 |
| CCCCCNc1ccccc1C(=O)NC12CC3CC(CC(C3)C1)C2 | Emax | % | 77.2 |
